Assay: binders of probe aFST on microarray, primary screen, stem cell growth factor project, biochemical, small-molecule microarray, fluorescence 635/667 (AID 1086);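 also: score merges 667 nm fluorescence with signal-to-noise of each printed compound spot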
Conditions: higher = more signal
Short version: composite z-score at least 0.3 is 1, less is 0.

QUERY: I'd appreciate it if you could say whether CO[C@H]1O[C@H](CO)[C@@H](OC(=O)Nc2ccccc2-c2ccccc2)[C@H](OC(=O)Nc2ccc3c(c2)OCO3)[C@H]1OC(=O)Nc1ccc2c(c1)OCO2 has composite z-score at least equal to 0.3.
RESULT: 1

QUERY: Answer whether composite z-score of CN(C)CCCNC(=O)[C@@]1(c2ccc([N+](=O)[O-])cc2)CC(=O)N(CC23CC4CC(CC(C4)C2)C3)[C@@H]1c1ccc(CO)cc1I is greater than or equal to 0.3.
RESULT: 1

QUERY: Given the entry C=CCN1Cc2ccccc2[C@H]2OC(c3ccc(OCCCO)cc3)=N[C@@]2(CC=C)C1=O , answer whether its composite z-score meets or surpasses 0.3.
RESULT: 1

QUERY: Decide: is the reported value of composite z-score for COc1ccc(CCNC(=O)[C@@]2(Sc3ccc(C)cc3)CC(=O)N(C3Cc4ccccc4C3)[C@@H]2c2ccc(CO)cc2)cc1 equal to or greater than 0.3?
RESULT: 1

QUERY: // inclusive: composite z-score at least 0.3? input: C[N+](C)(C)CCCC[C@@H]1NC(=O)[C@H]2C[C@@H](C(=O)NCCCCCCN)[C@@H](c3ccc(O)cc3)N2C1=O
RESULT: 1

QUERY: hey, is composite z-score for this one >= 0.3? CC(=O)NCCCC[C@@H]1NC(=O)[C@H]2C[C@@H](C(=O)NCCCC[N+](C)(C)C)[C@@H](c3cccc(OCCO)c3)N2C1=O
RESULT: 1

QUERY: Reported composite z-score at or above 0.3? CO[C@H]1O[C@H](CO)[C@@H](OC(=O)Nc2ccc3c(c2)OCO3)[C@H](OC(=O)c2cc3ccccc3[nH]2)[C@H]1OC(=O)c1cc2ccccc2[nH]1
RESULT: 0

QUERY: Threshold query (composite z-score >= 0.3) on NC(N)=NCCCn1cc(CNC(=O)[C@@H](N)Cc2ccccc2)nn1
RESULT: 0

QUERY: Given the entry CCOC(=O)C1=CC[C@@H](c2cccc(Cl)c2)N(S(=O)(=O)c2ccc(C)cc2)C1 , answer whether its composite z-score meets or surpasses 0.3.
RESULT: 1

QUERY: Hello, I need to know if CCCC[C@@H]1C[C@H]1[C@@H](NC(=O)Cc1ccccc1)c1ccc(-c2ccccc2)cc1 has measured composite z-score not below 0.3. Thanks!
RESULT: 1

QUERY: # check: composite z-score of COC(=O)C1=CC(CCCO)=CC(C2CC2)N(C)C=C1C(=O)OC (stereo not drawn) is greater than or equal to 0.3
RESULT: 0

QUERY: Could you verify whether the entry C=CCC(OC(C)=O)[C@@H]1[C@@H](N(Cc2cccc3ccccc23)C(=O)Cc2ccc(F)cc2)c2cc(OCCCO)ccc2N1C(=O)c1ccc2ccccc2n1 (stereo partly drawn) shows composite z-score of no less than 0.3?
RESULT: 1

QUERY: Given CCCC[C@@H]1C[C@H]1[C@@H](NC(=O)c1ccccc1)c1ccc(C(F)(F)F)cc1 , state whether its composite z-score is at least 0.3.
RESULT: 0

QUERY: Is reported composite z-score greater than or equal to 0.3 here: CCOc1cc(C(O)C2C=CC3C(=O)N(C)C(=O)C3N2Nc2ccccc2)ccc1O (stereo not drawn)
RESULT: 1

QUERY: Would you say COCCOC(=O)N1C(=O)[C@@]2(c3cc(C#CCCO)ccc31)[C@H](C(=O)Nc1nc3ccccc3s1)[C@H]1C(=O)O[C@H](c3ccccc3)[C@H](c3ccccc3)N1[C@@H]2c1ccccc1OCCO shows composite z-score at minimum 0.3?
RESULT: 1

QUERY: Can COc1ccc(NC(=O)O[C@H]2[C@H](OC(=O)Nc3ccccc3)[C@H](OC(=O)Nc3ccccc3)[C@@H](OC)O[C@@H]2CO)cc1 be said to have composite z-score at or above 0.3?
RESULT: 1

QUERY: Confirm if composite z-score reported for the compound COc1ccc(C(O)C2C=CC3C(=O)N(c4ccccc4)C(=O)C3N2Nc2ccc([N+](=O)[O-])cc2)cc1 (stereo not drawn) is 0.3 or above.
RESULT: 1

QUERY: Hi, just wondering whether COCC1=C2[C@@H](CCc3ccccc3)OB(O)C[C@@H]2[C@@H]2C(=O)C=CC(=O)[C@@H]2C1 shows composite z-score of 0.3 or higher.
RESULT: 0

QUERY: Identify whether the reported composite z-score of the following compound is 0.3 or greater: COCCOC(=O)N1C(=O)[C@@]2(c3cc(C#CC4=CCCCC4)ccc31)[C@H](c1ccc(O)cc1)N1[C@H](c3ccccc3)[C@H](c3ccccc3)OC(=O)[C@H]1[C@@H]2C(=O)N1CCN(c2ncccn2)CC1
RESULT: 0

QUERY: Decide: is the reported value of composite z-score for [N-]=[N+]=Nc1ccccc1C[C@]1(C(N)=O)N=C(c2ccc(OCCCO)cc2)O[C@H]1c1ccccc1N=[N+]=[N-] equal to or greater than 0.3?
RESULT: 1

QUERY: Reported composite z-score at or above 0.3? CC(C)(C)N1CC=CC23O[C@@H]4C=CCOC(=O)[C@@H]4[C@H]2C(=O)N(CCCCCCO)[C@@H]3C1=O (stereo partly drawn)
RESULT: 0

QUERY: Could you tell me if the measured composite z-score of CC(C)[Si](C#C[Si](C(C)C)(C(C)C)C(C)C)(O[C@H](C)c1cn([C@H](CO)Cc2ccccc2)nn1)C(C)C reaches 0.3 or more?
RESULT: 1

QUERY: Could you tell me if the measured composite z-score of C=CCOC(=O)[C@H]1[C@@H]2C(=O)O[C@@H](c3ccccc3)[C@@H](c3ccccc3)N2[C@@H](c2ccc(OCCOC(=O)[C@@H]3C[C@@H]4C(=O)N[C@@H](CCCCN(C)C)C(=O)N4[C@@H]3c3ccc(O)cc3)cc2)[C@]12C(=O)Nc1ccccc12 reaches 0.3 or more?
RESULT: 0

QUERY: # bool: composite z-score of CN(C)CCCNC(=O)[C@@H]1c2ccccc2C(=O)N(Cc2ccccc2Cl)[C@H]1c1ccc(CO)cc1 >= 0.3
RESULT: 0

QUERY: Form field: composite z-score at least 0.3? Entry: COc1ccc([Si](C)(C)[C@H]2[C@H](CCn3cc([C@H](O)c4ccccc4)nn3)O[C@@]3(C(=O)N(Cc4ccc(N5C(=O)c6cccc7cccc5c67)cc4)c4ccccc43)[C@@H]2C)cc1
RESULT: 0

QUERY: Check the entry COC(=O)[C@@]1(Cc2ccc(F)cc2)[C@H]2c3cc(C(=O)N4CCCC4)n(CCc4ccc(O)c(O)c4)c3C[C@H]2CN1C(=O)c1ccccc1 : does composite z-score equal or exceed 0.3?
RESULT: 1

QUERY: State whether the measured composite z-score reaches 0.3, counting equality as reaching it, for [N-]=[N+]=NCc1ccccc1C[C@@]1(C(=O)N2CCOCC2)N=C(c2ccc(OCCCO)cc2)O[C@@H]1c1ccccc1
RESULT: 1

QUERY: Is it the case that CC1=C([C@H](O)CCc2ccccc2)[C@H](CO)[C@@H]2C(=O)N(C)C(=O)[C@@H]2C1 has composite z-score reaching or exceeding 0.3?
RESULT: 0
